Cited source: the domain aggregation screens of Martell et al. (2025)

assay: soluble fraction after stress (log2 fold change); higher = more stays soluble; pooled small domains, quantitative proteomics; conditions: stress: 50 degC
Result type: soluble fraction (log2)
// no unit string in output, number only

> print(dat)
                            sequence.string  recorded.result
1  HMTAFEPYLVKVMASVLNIRKGPGTSYAITGQIKDKGTYTIVAESGSWGKLKSGAGWISLSYTSKAGKA            -0.67
2  HMQQQLLHIVFGGELKDVTGIEFEDLSKMDFVGAFSNYKDAYDAWKSAAQRTVDHAEMRYFILHAHKLL            -5.48
3  HMVSSAEQQARDKESGMILVQEAGGPDKARALVEKMRQDIRNPALDGTRRQMLRGHVARIELALAELETG          0.00436

Record `HMPLNAHIVGRGKRDRRGKRGAPYSIVLELGRDENGKRIQKWYSGYPTKAAAEEDKIRMLRELQTGEYVPQ` , field soluble fraction (log2): -0.309

====

test: soluble fraction after stress (log2 fold change); higher = more stays soluble; pooled small domains, quantitative proteomics; details: stress: 50 degC
Outcome label depends on soluble fraction (log2) relative to -0.1: at/above gives yes (1), below gives no (0).

> print(dat)
                            sequence.string  class.label
1  HMGTESFGARIRKIREARDWTPAALAEATGQTPEFVARVERDEVAPPVAFLLRLAAALGVDPSTF       no (0)

Incoming: Threshold query (soluble fraction (log2) >= -0.1) on `HMDTDWDVSGVTPDQYRLLFSVLGGLAGVKDVGLNPDGLRIIHTPEALPSIEKAFQANGLKLKRNVD`
Outgoing: yes (1)

Incoming: Threshold query (soluble fraction (log2) >= -0.1) on `HMSDDSTIVELLASSLRRDIAFGTLLPDQKLKLNELRTRYGGSIHSMRETLRILSAEGLVEATAQRGFRVT`
Outgoing: yes (1)

Incoming: Threshold query (soluble fraction (log2) >= -0.1) on `HMRMNASERQNQIVDLLSQNGVMKIMDIADHFNVSRETIRRDLIILEDDNRIKKWFGGVISAN`
Outgoing: no (0)

Incoming: Threshold query (soluble fraction (log2) >= -0.1) on `HMVQDDLRELEGISTELLAKLADAGITNRDDLADLAIDELVAITGQSEDDAKALIMKAREHWFAGDA`
Outgoing: yes (1)

Incoming: Threshold query (soluble fraction (log2) >= -0.1) on `HMQLYSLEVLSKKKVDLIENNKNLINLYFNKENGEYSYRLIFKNRKELYQVKDTLDNSSDVVSIKLDL`
Outgoing: no (0)

Incoming: Threshold query (soluble fraction (log2) >= -0.1) on `HMVDIEQAEFLSRQFDLLLARLDDPTIEWQDIADIRSEYTGENEHRDTIRKGSKLFYEYLQAGWIKN`
Outgoing: no (0)

Incoming: Threshold query (soluble fraction (log2) >= -0.1) on `HMAIMISINAKGEVAWNDQIISLDDLAQRFNAAGQQAQKPTVQLRADKESRYDMVAQVMSRASEAGLSDIA`
Outgoing: no (0)

Incoming: Threshold query (soluble fraction (log2) >= -0.1) on `HMAHTGGNTLTREKAVSVRSASDALLFEIHWNETPREDILSTREEKVDGKTYSIITIRTGKGREDHYYLLS`
Outgoing: no (0)

Incoming: Threshold query (soluble fraction (log2) >= -0.1) on `HMQYYITKIANYDQVSPNLLVRTAEGQYMVKTNADILDTDVTKLTEEEIRKDWGYLFENGFSELV`
Outgoing: no (0)
